target: HIV protease (Human immunodeficiency virus type 1 group M subtype B); construct: A third viral enzyme known as protease then cleaves the polyproteins; test: Enzymatic Assay for Determining the Inhibition Constant (Ki) of Synthetic Compounds Targeting the HIV Protease (fluorometric FRET assay); type: biochemical
experimental_readout: pKi
Give bare numbers, as −log10 of the molar value.

molecular_string: Cc1ccc(S(=O)(=O)N[C@@H](Cc2ccccc2)C(=O)NCCCC[C@@H](C(=O)O)N(CC(C)C)S(=O)(=O)c2cccs2)cc1
system_name: HIV protease (Human immunodeficiency virus type 1 group M subtype B)
pKi: 7.77

molecular_string: CC(C)CN([C@H](CO)CCCCNC(=O)[C@H](Cc1c[nH]c2ccccc12)NS(=O)(=O)c1ccc(N)cc1)S(=O)(=O)c1ccc(N)cc1
system_name: HIV protease (Human immunodeficiency virus type 1 group M subtype B)
pKi: 9.70

Next:
Data request: // returns reported pKi for input "Cc1ccc(S(=O)(=O)N(CC(C)C)[C@@H](CCCCNC(=O)[C@H](Cc2ccccc2)NS(=O)(=O)c2cccs2)C(=O)NO)cc1"
Data returned: 7.89

----------
Task for the reader: assign each of the following molecules its reported pKi.
biological target: HIV protease (Human immunodeficiency virus type 1 group M subtype B); construct: A third viral enzyme known as protease then cleaves the polyproteins; assay: Enzymatic Assay for Determining the Inhibition Constant (Ki) of Synthetic Compounds Targeting the HIV Protease (fluorometric FRET assay); format: biochemical
Give bare numbers, as −log10 of the molar value.

Examples with their reported pKi follow.
molecule: COc1ccc(S(=O)(=O)N(CC(C)C)[C@H](CO)CCCCNC(=O)[C@H](Cc2c[nH]c3ccccc23)NS(=O)(=O)c2ccc(C)cc2)cc1 [Example 149]
system_name: HIV protease (Human immunodeficiency virus type 1 group M subtype B)
result: 8.12
--
molecule: Cc1ccc(S(=O)(=O)N(CC(C)C)[C@H](CO)CCCCNC(=O)[C@H](Cc2c[nH]c3ccccc23)NS(=O)(=O)c2ccc(N)cc2)cc1 [Example 161]
system_name: HIV protease (Human immunodeficiency virus type 1 group M subtype B)
result: 8.85
--
molecule: Cc1ccc(S(=O)(=O)N(CC(C)C)[C@H](CO)CCCCNC(=O)[C@H](Cc2cccc(F)c2)NC(=O)OC(C)(C)C)cc1 [Example 139]
system_name: HIV protease (Human immunodeficiency virus type 1 group M subtype B)
result: 8.39
--
molecule: COc1ccc(NC(=O)N[C@@H](Cc2ccccc2)C(=O)NCCCC[C@@H](C(=O)O)N(CC(C)C)S(=O)(=O)c2ccc(C)cc2)cc1 [Example 196]
system_name: HIV protease (Human immunodeficiency virus type 1 group M subtype B)
result: 9.30
--
molecule: CN[C@@H](Cc1ccccc1)C(=O)NCCCC[C@@H](C(=O)O)N(CC(C)C)S(=O)(=O)c1ccc(C)cc1 [Example 88]
system_name: HIV protease (Human immunodeficiency virus type 1 group M subtype B)
result: 8.68

Next:
Data request: // returns reported pKi for input Cc1ccc(S(=O)(=O)N(CC(C)C)[C@H](CO)CCCCNC(=O)CN(Cc2ccccc2)C(=O)c2ccccc2)cc1 [Example 158]
Data returned: 7.02

----------
Target: HIV protease (Human immunodeficiency virus type 1 group M subtype B, UniProt P04585)
Construct: A third viral enzyme known as protease then cleaves the polyproteins
Test: Enzymatic Assay for Determining the Inhibition Constant (Ki) of Synthetic Compounds Targeting the HIV Protease (fluorometric FRET assay)
Format: biochemical
Text: Enzymatic Assay for Determining the Inhibition Constant (Ki) of Synthetic Compounds Targeting the HIV Protease This is a fluorometric assay based on the cleavage by protease of a substrate carrying a donor group (EDANS) and an acceptor group (DABCYL) on each side of the cleavage site, interacting together through fluorescence resonance energy transfer (FRET) as described by Matayoshi et al. (Science 247:[…], 1990). […] Graphs are traced and the Ki determined using GraphPad Prism software v. […]
Lab note: anything with Ki below 2 nM is marked TRUE; values at 2 nM or higher are marked FALSE.

Study these solved cases before continuing.
molecular_string: Cc1ccc(S(=O)(=O)N[C@@H](Cc2ccccc2)C(=O)NCCCC[C@@H](CO)N(CC(C)C)S(=O)(=O)c2ccc(C)cc2)cc1
label: FALSE
//
molecular_string: CC(C)CN([C@H](CO)CCCCNC(=O)[C@H](Cc1ccccc1)NS(=O)(=O)c1ccc([N+](=O)[O-])cc1)S(=O)(=O)c1ccc(N)cc1
label: FALSE
//
molecular_string: CC(=O)N[C@@H](Cc1c[nH]c2ccccc12)C(=O)NCCCC[C@@H](C(=O)O)N(CC(C)C)S(=O)(=O)c1ccc(C)cc1
label: TRUE
//
molecular_string: CC(C)CN([C@H](CO)CCCCNC(=O)[C@H](Cc1c[nH]c2ccccc12)NC(=O)C(C)C)S(=O)(=O)c1ccc(N)cc1
label: TRUE

In the following, a different compound is considered.
Data request: Ki under 2 nM? Item: "Cc1ccc(S(=O)(=O)N[C@@H](Cc2ccccc2)C(=O)NCCCC[C@@H](C(=O)O)N(CC(C)C)S(=O)(=O)c2ccccc2)cc1"
Data returned: FALSE
